Measured z-score, listed per entry for reference.
Tgt: NADPH oxidase 5 (Homo sapiens)
Experiment: compounds shifting NOX5 Amplex Red fluorescence – cell-based, HEK293-NOX5, NOX inhibitor project, primary screen (AID 1161)
Measurement setup: HEK293-NOX5, ionomycin, 45 min, higher = more signal
Lab note: jot the number down without any unit.

Example entries begin here.
C=C(COC)/C(=C/C[C@@H](OC(C)=O)c1ccccc1OCCO)c1cnc2ccccc2c1 = -0.792
Cc1ccc(S[C@]2(C(=O)NCCCN(C)C)CC(=O)N(C3Cc4ccccc4C3)[C@@H]2c2ccc(CO)cc2I)cc1 = 2.56

Give the reported z-score for this compound. CCOC(=O)C[C@H]1[C@H](OC(=O)c2ccccc2-c2ccccc2)[C@@H](NC(=O)C2CCCCC2)c2cc(OCCCO)ccc2N1C(=O)c1ccc2ccccc2n1
2.62

Quick one: give measured z-score for C=CCOC(=O)[C@H]1[C@@H]2C(=O)O[C@@H](c3ccccc3)[C@@H](c3ccccc3)N2[C@@H](c2ccc(OCCOC(=O)[C@@H]3C[C@@H]4C(=O)N[C@@H](CCCCNC(C)=O)C(=O)N4[C@@H]3c3cccc(OCCO)c3)cc2)[C@]12C(=O)Nc1ccccc12
0.618
